- System: OVCAR-8 ovarian
- measurement_notes: NCI tumour cell line growth inhibition, 48 h
Known TGI of a selection of compounds
experimental_readout: TGI

O=C1OC(c2ccccc2)(c2cc(Br)c(O)c(Br)c2)c2ccccc21 (stereo not drawn) :: > 100 µM
CCOC(=O)/C(=C(/C)NCC(C)C)c1cc(O)c(O)c2c(C)cc(=O)[nH]c12 :: > 100 µM
NCCN1C(=O)C2C3c4ccccc4C(c4ccccc43)C2C1=O (stereo not drawn) :: > 100 µM
Cc1ccc(/C=C2\Cc3cccc(C)c3C2=O)c(C(=O)O)c1 :: > 100 µM
Cl/C(=C\C=Nc1ccc(I)cc1)c1ccc2ccccc2c1 :: 41.3 µM
C[C@H]1[C@H]2[C@H]3CC[C@@H]4[C@@]5(C)C/C(=C/c6cccnc6)C(=O)C(C)(C)[C@@H]5CC[C@@]4(C)[C@]3(C)CC[C@]23CO[C@]1(C)[C@@H](C(=O)/C=C\c1cccnc1)C3 :: > 50 µM
COc1ccc2c(c1OC)OCC(CN(C)C)C2=O (stereo not drawn) :: 50.2 µM
COc1ccc(C=C(c2ccc(OCc3ccccc3)cc2)c2ccc(OCc3ccccc3)cc2)cc1 :: > 100 µM
CC(=O)OCC(OC(C)=O)C(OC(C)=O)C(OC(C)=O)C(C=NN(C(C)=O)S(=O)(=O)c1ccc(/C=C2\NC(=O)NC2=O)cc1)OC(C)=O (stereo not drawn) :: > 100 µM
C/C(=N\NC(=S)N(C)CCN(C)C(=S)N/N=C(\C)c1ccccn1)c1ccccn1 :: 7.32 µM
Cc1ccc(C)c2c1CC(Cc1ccccc1C(=O)O)C2=O (stereo not drawn) :: > 100 µM
COC(=O)Nc1nc2ccc(NC(=O)c3cccs3)cc2[nH]1 :: > 100 µM
C[C@]12CC[C@H](O)CC1=CC[C@@H]1[C@@H]2CC[C@]2(C)C(=N/O)/C(=C/c3ccc([N+](=O)[O-])cc3)C[C@@H]12 :: 9.75 µM
O=C(/C(=C/c1ccc([N+](=O)[O-])cc1)SCc1ccc(F)cc1)c1ccc(Cl)cc1 :: 96.6 µM
CCOC(=O)C(NCc1cccc(C(F)(F)F)c1)(NC(=O)CC)C(F)(F)F (stereo not drawn) :: > 100 µM
Clc1cc2n[se]nc2cc1Cl :: > 100 µM
CCOC(=O)[C@@H](C)C[C@H](Cc1ccccc1)NC(=O)c1csc([C@@H](C[C@H](C(C)C)N(C)C(=O)[C@H](CC)NC(=O)[C@H]2CCCCN2C)OC(C)=O)n1 :: > 16.7 µM
O=c1oc2ccc(-n3c(=O)c4ccccc4c4ccccc4c3=O)cc2c2ccccc12 :: > 100 µM
